# test-system: Na+-dependent bile acid transportation system (intestinal bile acid transportation system in the terminal small intestine) (Oryctolagus cuniculus)
# Construct: from tissue; host or cells: brush border membrane vesicles from the terminal 7/10 of the small intestine (ileum) of male New Zealand rabbits
# Sequence (Q28727 whole entry): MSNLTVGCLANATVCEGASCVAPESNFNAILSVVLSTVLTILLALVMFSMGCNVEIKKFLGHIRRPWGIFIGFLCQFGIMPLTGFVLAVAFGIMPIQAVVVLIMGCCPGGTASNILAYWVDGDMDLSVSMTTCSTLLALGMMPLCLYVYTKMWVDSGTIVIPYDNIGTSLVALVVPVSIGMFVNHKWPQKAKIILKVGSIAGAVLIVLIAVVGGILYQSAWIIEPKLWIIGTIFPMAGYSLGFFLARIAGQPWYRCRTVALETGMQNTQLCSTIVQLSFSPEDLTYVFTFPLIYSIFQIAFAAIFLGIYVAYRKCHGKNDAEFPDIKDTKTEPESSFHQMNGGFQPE
# protocol-summary: Inhibition of Na+-dependent [3H]-taurocholate uptake in brush border membrane vesicles of the ileum of rabbits
# Type: biochemical
# condition-set: quotient of IC50Na of reference taurochenedeoxycholate (TCDC) and IC50Na of test substance; rabbit ileum brush border membrane vesicles; 50 μM taurocholate
readout-name: IC5ONa -TCDC (μmol)/ IC50Na -compound (μmol)

molecule | val
CC(CCC(=O)NCCS(=O)(=O)O)C1CCC2C3C(O)CC4CC(NC(=O)CCC(=O)NC(CCCCNC(=O)OC(C)(C)C)C(=O)Nc5ccccc5C(Nc5ccccn5)C(c5ccccn5)C(O)c5ccccc5)CCC4(C)C3CC(O)C12C (stereo not drawn) [Example 1k] | 1.59
CC(CCC(=O)O)C1CCC2C3C(O)CC4CC(NC(=O)CCC(=O)NCCCCC(N)C(=O)Nc5ccccc5C(Nc5ccccn5)C(c5ccccn5)C(O)c5ccccc5)CCC4(C)C3CC(O)C12C (stereo not drawn) [Example 10] | 1.63
CC(CCC(=O)O)C1CCC2C3C(O)CC4CC(NC(=O)CCC(=O)NC(CCCCNC(=O)OC(C)(C)C)C(=O)Nc5ccccc5C(Nc5ccccn5)C(c5ccccn5)C(O)c5ccccc5)CCC4(C)C3CC(O)C12C (stereo not drawn) [Example 1j] | 1.51
CC(CCC(=O)NCC(=O)O)C1CCC2C3C(O)CC4CC(NC(=O)CCC(=O)NC(CCCCNC(=O)OC(C)(C)C)C(=O)Nc5ccccc5C(Nc5ccccn5)C(c5ccccn5)C(O)c5ccccc5)CCC4(C)C3CC(O)C12C (stereo not drawn) [Example 14] | 1.52
C[C@H](CCC(=O)O)[C@H]1CC[C@H]2[C@@H]3[C@H](O)C[C@@H]4C[C@@H](NC(=O)CCC(=O)Nc5ccc(C(Nc6ccccn6)C(c6ccccn6)C(O)c6ccccc6)cc5)CC[C@]4(C)[C@H]3C[C@H](O)[C@]12C (stereo partly drawn) [Example 7] | 0.15
CC(CCC(=O)O)C1CC[C@H]2[C@@H]3[C@H](O)C[C@@H]4C[C@@H](NC(=O)CCC(=O)Nc5ccccc5C(Nc5ccccn5)C(c5ccccn5)C(O)c5ccccc5)CC[C@]4(C)[C@H]3C[C@H](O)[C@]12C (stereo partly drawn) [Example 8] | 0.91

###

# test-system: Na+-dependent bile acid transportation system (intestinal bile acid transportation system in the terminal small intestine) (Oryctolagus cuniculus)
# Construct: from tissue; host or cells: brush border membrane vesicles from the terminal 7/10 of the small intestine (ileum) of male New Zealand rabbits
# protocol-summary: Inhibition of Na+-dependent [3H]-taurocholate uptake in brush border membrane vesicles of the ileum of rabbits
# Format: biochemical
# condition-set: quotient of IC50Na of reference taurochenedeoxycholate (TCDC) and IC50Na of test substance; rabbit ileum brush border membrane vesicles; 50 μM taurocholate
readout-name: IC5ONa -TCDC (μmol)/ IC50Na -compound (μmol)

molecule | val
CC(CCC(=O)O)C1CCC2C3C(O)CC4CC(NC(=O)CCC(=O)NC(Cc5ccccc5)C(=O)N5CCCC5C(=O)Nc5ccccc5C(Nc5ccccn5)C(c5ccccn5)C(O)c5ccccc5)CCC4(C)C3CC(O)C12C (centres unmarked) | 1.96
COC(=O)CCC(C)C1CCC2C3C(O)CC4CC(NC(=O)CCC(=O)NCCCCC(N)C(=O)Nc5ccccc5C(Nc5ccccn5)C(c5ccccn5)C(O)c5ccccc5)CCC4(C)C3CC(O)C12C (centres unmarked) | 2.02
C[C@H](CCC(=O)Nc1ccccc1[C@@H](Nc1ccccn1)[C@H](c1ccccn1)[C@H](O)c1ccccc1)[C@H]1CC[C@H]2[C@@H]3[C@H](O)C[C@@H]4C[C@H](O)CC[C@]4(C)[C@H]3C[C@H](O)[C@]12C | 0.50
COC(=O)CCC(C)C1CCC2C3C(O)CC4CC(NC(=O)CCC(=O)NC(Cc5ccccc5)C(=O)N5CCCC5C(=O)Nc5ccccc5C(Nc5ccccn5)C(c5ccccn5)C(O)c5ccccc5)CCC4(C)C3CC(O)C12C (centres unmarked) | 0.56
CC(CCC(=O)O)C1CCC2C3C(O)CC4CC(NC(=O)CCC(=O)NC(CCCCNC(=O)OC(C)(C)C)C(=O)Nc5ccccc5C(Nc5ccccn5)C(c5ccccn5)C(O)c5ccccc5)CCC4(C)C3CC(O)C12C (centres unmarked) [Example 12] | 2.58
